Sourced from PubChem BioAssay (NCATS)

tgt: Glucocorticoid receptor (Homo sapiens)
experiment summary: GR-GFP Redistribution (AID 450); also: potency is read from the fitted curve at half-maximal effect
run parameters: U2OS GR-GFP nuclear translocation, laser cytometry, 2 h
The source made the active and inactive calls.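 The calls were made as follows: active = compounds whose dose series gives a full or clear partial fitted curve of increased nuclear translocation; inconclusive = weak partial curve or effect only at the top dose; inactive = no dose-dependent translocation response.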
Reported Potency by item:

Example compounds with recorded Potency:
Cc1cccc(CNc2ncncc2-c2ccccc2Cl)c1; > 46 µM (inactive)
Cc1cnc(CNc2ccnc(-c3ccc(C(=O)N(C)C)cc3)n2)cn1; > 46 µM (inactive)
N#CCCn1c(=O)c(CCc2ccccc2)nc2cnc(N3CCOCC3)nc21; > 9.22 µM (inactive)
c1ccc(Nc2nc(-c3ccc4c(c3)OCO4)nc3ccccc23)cc1; > 46 µM (inactive)
O=c1c(-c2ccc(F)cc2)nc2cncnc2n1-c1ccccc1; > 9.22 µM (inactive)

[in] For Glucocorticoid receptor (Homo sapiens), give Potency of the listed compound: CN(C)Cc1ccccc1-c1nc(N(C)Cc2ccco2)c2ccccc2n1
[out] > 46 µM (inactive)

[in] Retrieve Potency on Glucocorticoid receptor (Homo sapiens); query Cc1ccccc1-c1nc(NC2CC2)c2ccccc2n1
[out] > 46 µM (inactive)

[in] Given COc1cccc(Cn2c(=O)c(CCc3ccccc3)nc3cncnc32)c1 , report its Potency on Glucocorticoid receptor (Homo sapiens).
[out] > 9.22 µM (inactive)

[in] Recall the reported Potency of COc1ccccc1-c1cncnc1N1CCN(C)CC1 when tested on Glucocorticoid receptor (Homo sapiens).
[out] > 46 µM (inactive)

[in] Name the value of Potency reported for CS(=O)(=O)Nc1cccc(-c2nccc(NCc3cccs3)n2)c1 when tested on Glucocorticoid receptor (Homo sapiens).
[out] > 46 µM (inactive)

[in] Specify the recorded Potency for Cc1noc(C)c1-c1ccc2ncnc(N3CCC(C(=O)O)CC3)c2c1 , system: Glucocorticoid receptor (Homo sapiens).
[out] > 46 µM (inactive)

[in] Lab note: Glucocorticoid receptor (Homo sapiens) assay, enter Potency for Cc1cc(/C=C\c2ccc3cc(N(C)C)ccc3[n+]2C)c(C)n1-c1ccccc1 here
[out] > 20.6 µM (inactive)

[in] Report measured Potency on Glucocorticoid receptor (Homo sapiens); entry: COc1ccc(CNc2nc(-c3ccc(C(=O)N(C)C)cc3)nc3ccccc23)c(OC)c1
[out] > 46 µM (inactive)
